assay: Elimination half-life of compound when administered intravenously as a mixture (five-in-one dose) to a single dog.; type: ADME, organism-based; conditions: in vivo, iv
recorded-metric: half-life (h)

structure_notation=CNC(=O)CN(C)S(=O)(=O)c1cc(CCN2CCC(c3nc(COCC(F)(F)F)c(-c4ccc(F)cc4)o3)CC2)ccc1OC recorded_metric=half-life result_value=3
structure_notation=COc1ccc(CCN2CCC(c3nc(COCC(F)(F)F)c(-c4ccc(F)cc4)o3)CC2)cc1S(N)(=O)=O recorded_metric=half-life result_value=4.9
structure_notation=COc1ccc(CCN2CCC(c3nc(COCC(F)(F)F)c(-c4ccccc4)o3)CC2)cc1S(=O)(=O)NCCNC(C)=O recorded_metric=half-life result_value=2.9
structure_notation=COc1ccc(CCN2CCC(c3nc(COCC(F)(F)F)c(-c4ccccc4)o3)CC2)cc1S(N)(=O)=O recorded_metric=half-life result_value=1.5
structure_notation=CNC(=O)CN(C)S(=O)(=O)c1cc(CCN2CCC(c3nc(COCC(F)(F)F)c(-c4ccccc4)o3)CC2)ccc1OC recorded_metric=half-life result_value=2.4

====

experiment: Clearance of compound when administered intravenously as an individual dose to a single dog.; format: ADME, organism-based, Canis lupus familiaris; conditions: in vivo, iv
Attribute: clearance
recorded-metric: clearance

structure_notation=COc1ccc(CCN2CCC(c3nc(COCC(F)(F)F)c(-c4ccccc4)o3)CC2)cc1S(N)(=O)=O result_value="5 mL/min/kg"
structure_notation=COc1ccc(CCN2CCC(c3nc(COCC(F)(F)F)c(-c4ccccc4)o3)CC2)cc1S(=O)(=O)NCCNC(C)=O result_value="10.3 mL/min/kg"
structure_notation=CNC(=O)CN(C)S(=O)(=O)c1cc(CCN2CCC(c3nc(COCC(F)(F)F)c(-c4ccccc4)o3)CC2)ccc1OC result_value="28.9 mL/min/kg"
structure_notation=COc1ccc(CCN2CCC(c3nc(COCC(F)(F)F)c(-c4ccc(F)cc4)o3)CC2)cc1S(N)(=O)=O result_value="0.9 mL/min/kg"
structure_notation=CNC(=O)CN(C)S(=O)(=O)c1cc(CCN2CCC(c3nc(COCC(F)(F)F)c(-c4ccc(F)cc4)o3)CC2)ccc1OC result_value="11.6 mL/min/kg"

====

assay: Clearance of compound when administered intravenously as a mixture (five-in-one dose) to a single dog.; format: ADME, organism-based, Canis lupus familiaris; details: in vivo, iv
# binarize clearance: threshold 6 mL/min/kg inclusive, high side MET, low side NOT MET

structure_notation=CNC(=O)CN(C)S(=O)(=O)c1cc(CCN2CCC(c3nc(COCC(F)(F)F)c(-c4ccccc4)o3)CC2)ccc1OC discrete_label=MET
structure_notation=COc1ccc(CCN2CCC(c3nc(COCC(F)(F)F)c(-c4ccc(F)cc4)o3)CC2)cc1S(N)(=O)=O discrete_label="NOT MET"
structure_notation=COc1ccc(CCN2CCC(c3nc(COCC(F)(F)F)c(-c4ccccc4)o3)CC2)cc1S(=O)(=O)NCCNC(C)=O discrete_label=MET
structure_notation=CNC(=O)CN(C)S(=O)(=O)c1cc(CCN2CCC(c3nc(COCC(F)(F)F)c(-c4ccc(F)cc4)o3)CC2)ccc1OC discrete_label=MET

====

experiment: Elimination half-life of compound when administered intravenously as an individual dose to a single dog.; type: ADME, organism-based; details: in vivo, iv
Listing of recorded half-life by entry.
recorded-metric: half-life

structure_notation=CNC(=O)CN(C)S(=O)(=O)c1cc(CCN2CCC(c3nc(COCC(F)(F)F)c(-c4ccc(F)cc4)o3)CC2)ccc1OC recorded_metric=half-life result_value="3.4 h"
structure_notation=COc1ccc(CCN2CCC(c3nc(COCC(F)(F)F)c(-c4ccccc4)o3)CC2)cc1S(=O)(=O)NCCNC(C)=O recorded_metric=half-life result_value="2.6 h"
structure_notation=COc1ccc(CCN2CCC(c3nc(COCC(F)(F)F)c(-c4ccc(F)cc4)o3)CC2)cc1S(N)(=O)=O recorded_metric=half-life result_value="4.2 h"
structure_notation=CNC(=O)CN(C)S(=O)(=O)c1cc(CCN2CCC(c3nc(COCC(F)(F)F)c(-c4ccccc4)o3)CC2)ccc1OC recorded_metric=half-life result_value="2.1 h"
structure_notation=COc1ccc(CCN2CCC(c3nc(COCC(F)(F)F)c(-c4ccccc4)o3)CC2)cc1S(N)(=O)=O recorded_metric=half-life result_value="1.4 h"
